# Tested on: U251 CNS
# Protocol Details: NCI tumour cell line growth inhibition, 48 h
Observed Property: TGI

Which TGI reading was recorded for the molecule CC1=C(CCCOC(=O)NCCCl)C2=C(C)C3(CC3)[C@@](C)(O)C(=O)C2=C1 ?
> 100 µM

Please give the result for COc1ccccc1NC(=O)c1ccc(/C=C/C(=O)c2nccn2C)cc1 too.
1.02 µM

Proceed to CCN(CCCN(CC)C(=O)N[C@@H](Cc1ccccc1)C(=O)NC)C(=O)N[C@@H](Cc1ccccc1)C(=O)NC
> 100 µM

Follow-up entry: C/C(=N\NC(N)=S)c1ccc(C)cc1C
> 100 µM

One more molecule: O=[N+]([O-])C(=C(Sc1ccccc1)Sc1ccccc1)C(Cl)=C(Cl)Cl
4.21 µM

Likewise for COC(=O)[C@@H](C)C[C@H](Cc1ccccc1)NC(=O)c1nc([C@@H](C[C@H](C(C)C)N(C)C(=O)[C@@H](NC(=O)[C@H]2CCCN2C)C(C)C)OC(C)=O)sc1C ?
> 25 µM

For CC(C)c1c(P(=O)(c2ccccc2)c2ccccc2)n(C)c2ccccc12 then?
> 100 µM

---

# Tested on: SK-MEL-2 melanoma
# Protocol Details: NCI tumour cell line growth inhibition, 48 h
Where a SMILES comes first, the peptide text is derived from it. [ ]: non-standard residue; d: D form. The star is where a group is joined. Bn2Val = CC(C)[C@@H](C(=O)*)N(Cc1ccccc1)Cc1ccccc1; NH(3,4-diMeO-benzyl) = COc1ccc(CN*)cc1OC; NMeV = CN[C@H](C(=O)O)C(C)C; dNMeA = CN[C@H](C)C(=O)O
Below, each entry is listed with its recorded GI50.

Field: example entries. Status: answers known.
COc1nc2c(cc1S(=O)(=O)c1ccccc1)CCc1c-2cnn1-c1ccccc1Cl : 71.7 µM
O=C1c2ccccc2-c2c1c1cc3c(cc1c(=O)n2CCCCl)OCO3 : > 100 µM
COc1ccc(-n2cc(-c3ccc(OC)c(OC)c3)[nH]c2=S)cc1Cl : > 100 µM
Cc1c(N2C(=O)/C(=C\c3ccccc3O)N=C2c2ccccc2)c(=O)n(-c2ccccc2)n1C : > 100 µM
CN=C1NC(=O)/C(=C/c2ccc3ncccc3c2)S1 : 5.42 µM
Cn1c(-c2nonc2N)nc2cnccc21 : > 25 µM

What does the record list as GI50 for O=[n+]1c(CBr)c(CBr)n([O-])c2ccccc21 ?
15.3 µM

Cool, now N#Cc1nc(-c2ccc(F)cc2)oc1S(=O)(=O)N1CCOCC1
13.4 µM

Quick one: COc1ccc(CNC(=O)[C@@H](C)N(C)C(=O)[C@@H]2CCCN2C(=O)[C@H](C(C)C)N(C)C(=O)[C@@H](NC(=O)[C@H](C(C)C)N(Cc2ccccc2)Cc2ccccc2)C(C)C)cc1OC (Bn2Val-V[NMeV]P[dNMeA]-{NH(3,4-diMeO-benzyl)})
4.38 µM

---

Entries and their TGI values follow.
# System: IGROV1 ovarian
# Protocol Details: NCI tumour cell line growth inhibition, 48 h
Reply numerically in µM, unit not repeated.

Answered examples (3):
CC(=O)c1ccc(N(/C=C/C(=O)C(F)(F)F)CC(=O)c2ccc(Cl)c(Cl)c2)cc1 : 28.4
COc1cc2c(cc1O)[C@H](Cc1ccc(Oc3cc(C[C@H]4c5cc(OC)c(OC)cc5CCN4C)ccc3OC)cc1)NCC2 : 33
CCOC(=O)c1c(SCCN2CCCC2)n(-c2ccccc2)c(=S)n(-c2ccccc2)c1=O : 4.47

Shift focus to the following entry.
What value of TGI has been recorded for this entry: COc1cccc(C2c3cc4c(cc3OC(N3CCCC3)C2C)OCO4)c1OC (stereo not given)
16.6

---

# Tested on: NCI-H460 lung
# output must be one of t = active, f = inactive

Illustrative cases are given below, each with its answer.
N#Cc1c(O)c2c(c(O)c1C#N)C(=O)c1ccccc1C2=O : f
Clc1cccc(NC=Nc2ccc(-c3nc4ccccc4s3)cc2)c1 : f
CCCCCCCCCCCCOC1C(CNCC2OC3OC(C)(C)OC3C2NC(=O)Nc2ccc(C(=O)OCC)cc2)OC2OC(C)(C)OC21 (stereo not given) : f

State the result this test recorded for Clc1ccc(Cc2nc3cc4ccccc4cc3[nH]2)cc1 .
f

Next: COC(=O)[C@@H](C)C[C@H](Cc1ccccc1)NC(=O)c1nc([C@@H](C[C@H](C(C)C)N(C)C(=O)[C@@H](NC(=O)[C@H]2CCCN2C)C(C)C)OC(C)=O)sc1C
t

---

Measured TGI of individual entries
# System: DMS 273 small cell lung
# Protocol Details: NCI tumour cell line growth inhibition, 48 h

Some compounds with recorded TGI:
CC(=O)OCCc1cccnc1/C=N/O : > 100 µM
COc1cc([C@@H]2c3cc4c(cc3C[C@H]3COC(=O)[C@@H]32)OCO4)cc(OC)c1OC : > 4.13 µM
O=[N+]([O-])c1ccc(NSc2ccccc2)cc1 : 33.7 µM

For the compound Cc1cccc(C(C)(C)C)c1NC(=O)C(=O)Cc1nc2ccccc2s1 , what TGI is on record?
> 100 µM

Now the same for COc1ccc(CNc2nc3ccc(C(F)(F)F)cc3nc2-c2ccccc2)cc1OC
> 100 µM

Same thing, different compound: COC(=O)C(CC(=O)c1cc2c(cc1I)OCO2)Cc1cc(OC)c(OC)c(OC)c1I (stereo unspecified)
> 100 µM

---

Reported TGI by item:
# System: HCT-116 colon
# Protocol Details: NCI tumour cell line growth inhibition, 48 h

As a guide, the following entries are already answered.
Cc1cccc(C[C@@]2(SCc3ccccc3)C(C)(C)[C@@H]3CC[C@@]2(C)C3)n1 : 31.9 µM
C/C(=N\NC(N)=S)c1ccc(C)cc1C : > 100 µM
O=C(O)/C=C/C(=O)Nc1ncn[nH]1 : > 100 µM
C[C@]12CC/C(=N\O)C=C1CC[C@@H]1[C@@H]2CC[C@]2(C)C(=N/O)/C(=C/c3cccnc3)C[C@@H]12 : > 100 µM
CN1CCN(Cc2ccc(NC(=O)c3cncc(C#Cc4cnc(N)c5ccccc45)c3)cc2C(F)(F)F)CC1 : 0.581 µM
Cc1oc2nc(N(C)C)n3nnnc3c2c1C : > 100 µM

Query (compound): CCC1CCC2CCCC(C)N12 (stereo unspecified) ; field requested: TGI
> 100 µM

---

Recorded TGI values for a group of compounds are listed next.
# System: HOP-92 NSCLC
# Protocol Details: NCI tumour cell line growth inhibition, 48 h

Some compounds with known TGI results, for comparison:
CN1CCN(Cc2ccc(NC(=O)c3cncc(C#Cc4cnc(N)c5ccccc45)c3)cc2C(F)(F)F)CC1 : 1.25 µM
CC1=CC=CC(C)(C)CC1(O[Si](C)(C)C)C(F)(F)F (stereo unspecified) : > 100 µM
COC(=O)C(CC(=O)c1cc2c(cc1I)OCO2)Cc1cc(OC)c(OC)c(OC)c1I (stereo unspecified) : > 100 µM

Form: Entry = C=CC/C(C(=O)OC)=C(/C(=O)OC)N(CCC)CCC | System = HOP-92 NSCLC | TGI = ____
> 100 µM

Moving on to the next compound: OCc1c(-c2cccc3ccccc23)sc(-c2cccc3ccccc23)c1CO
30.7 µM

---

# Test system: HOP-62 NSCLC
# Protocol Details: NCI tumour cell line growth inhibition, 48 h
# TGI listing for each entry below

Guide cases for TGI, answers given:
O=C1/C(=C/c2ccccc2)CN(C(=O)Oc2ccc(Cl)cc2)C/C1=C\c1ccccc1 : 14.7 µM
N#Cc1nc(-c2ccc(F)cc2)oc1S(=O)(=O)N1CCOCC1 : 37.9 µM
O=c1[nH]c(=O)n(C2CC(O)C(CO)O2)cc1C#Cc1c(F)c(F)c(F)c(F)c1F (stereo not given) : > 100 µM
COC(=O)CCCC(=O)C(=Nc1c(Cl)cccc1Cl)NNc1ccc(Cl)cc1 : > 100 µM
OC(c1cccc(C(F)(F)F)c1)c1cnccc1NC1CCCCCC1 (stereo not given) : 3.63 µM
CCN(CC)CCCn1c(=O)c2cccnc2n2c3c(=O)n(C)c(=O)n(C)c3nc12 : > 100 µM
COc1cc2c(c(O)c1C)C(=O)C(Cl)=CC2=O : > 69.2 µM
OCc1c(-c2cccc3ccccc23)sc(-c2cccc3ccccc23)c1CO : 26.3 µM
COc1ccc(CN2CCCC(C(=O)c3ccc(C(F)(F)F)cc3)C2)c(O)c1 (stereo not given) : > 100 µM
CCOC(=O)c1c(SCCN2CCCC2)n(-c2ccccc2)c(=S)n(-c2ccccc2)c1=O : 36.6 µM

Can you look up the measured TGI of Cc1cc2cccc(Cl)c2nc1C(=O)c1ccccc1 for me?
> 100 µM

// next record CC(=O)/C(=C/n1c(=S)sc2ccccc21)C(=O)Nc1ccccc1C
> 100 µM

Now the same for O=C(O)c1cc(S(=O)(=O)N=NC=C2c3ccccc3N(O)c3ccccc32)ccc1O
37.5 µM

Attribution: PubChem BioAssay (NCI)
